target: SHIP1 (Src homology 2 domain-containing inositol-5-phosphatase 1) (Homo sapiens); construct: Recombinant His-tagged human SHIP1 phosphatase domain; assay: malachite green phosphate assay with PI([…])P3 diC8 on recombinant phosphatase domain
Sequence (Q92835 399-715 limits assumed): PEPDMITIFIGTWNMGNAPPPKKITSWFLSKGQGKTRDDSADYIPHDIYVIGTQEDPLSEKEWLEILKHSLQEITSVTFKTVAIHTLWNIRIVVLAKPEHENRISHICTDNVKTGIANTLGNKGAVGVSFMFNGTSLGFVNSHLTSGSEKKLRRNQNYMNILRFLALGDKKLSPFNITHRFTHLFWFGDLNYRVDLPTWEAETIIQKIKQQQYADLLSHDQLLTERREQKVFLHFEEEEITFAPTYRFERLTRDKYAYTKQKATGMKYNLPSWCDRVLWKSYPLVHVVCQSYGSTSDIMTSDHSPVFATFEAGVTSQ
MEASURED_PROPERTY: IC50
Remember to quote the unit after the number.

Which value of IC50 has been reported for "O=c1c2ccccc2[se]n1-c1ccccc1" in the records? 1810 nM

----------
target: SHIP2 (Src homology 2 domain-containing inositol-5-phosphatase 2) (Homo sapiens, UniProt O15357); construct: Recombinant His-tagged human SHIP2 phosphatase domain; assay: malachite green phosphate assay with PI([…])P3 diC8 on recombinant phosphatase domain
Sequence (O15357 419-732 limits assumed): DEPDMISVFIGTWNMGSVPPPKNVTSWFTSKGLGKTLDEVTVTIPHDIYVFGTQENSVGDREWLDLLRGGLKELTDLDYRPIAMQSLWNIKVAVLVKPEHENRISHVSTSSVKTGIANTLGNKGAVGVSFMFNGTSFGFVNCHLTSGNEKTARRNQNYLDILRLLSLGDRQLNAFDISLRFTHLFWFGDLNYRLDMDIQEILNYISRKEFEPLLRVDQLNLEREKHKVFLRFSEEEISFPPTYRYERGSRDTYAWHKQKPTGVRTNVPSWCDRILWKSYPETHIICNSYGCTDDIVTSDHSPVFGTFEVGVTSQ
MEASURED_PROPERTY: IC50 (nM)
Write the value in nM as a bare number.

Which value of IC50 has been reported for "O=c1c2ccccc2[se]n1-c1ccccc1" in the records? 480

The origin of these recorded values is paper PMC8935241.
